target: Factor X, P00742
Sequence (P00742 whole entry, looked up): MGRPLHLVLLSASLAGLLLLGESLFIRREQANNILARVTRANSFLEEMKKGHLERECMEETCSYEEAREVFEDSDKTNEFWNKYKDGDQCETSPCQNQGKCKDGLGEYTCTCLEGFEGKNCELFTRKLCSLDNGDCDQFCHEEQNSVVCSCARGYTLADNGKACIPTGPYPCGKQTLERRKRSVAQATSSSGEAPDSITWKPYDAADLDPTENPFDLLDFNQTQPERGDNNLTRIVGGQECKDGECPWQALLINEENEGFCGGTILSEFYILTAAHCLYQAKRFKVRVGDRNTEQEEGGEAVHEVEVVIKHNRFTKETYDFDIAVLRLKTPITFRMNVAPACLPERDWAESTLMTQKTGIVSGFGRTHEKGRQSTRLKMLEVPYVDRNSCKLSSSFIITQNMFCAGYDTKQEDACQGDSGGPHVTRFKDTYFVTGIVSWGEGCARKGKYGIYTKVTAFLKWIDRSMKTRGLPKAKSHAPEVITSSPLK
Some proteins, each annotated with its measured % of WT kcat/KM.
Return type: number; implicit unit %.

Please review the entries below; each comes with its answer.
{"PROTEIN": "FIXa-Y155F/K247N/N249S/R318Y/R338E/R403E/E410N (protein) chain 1: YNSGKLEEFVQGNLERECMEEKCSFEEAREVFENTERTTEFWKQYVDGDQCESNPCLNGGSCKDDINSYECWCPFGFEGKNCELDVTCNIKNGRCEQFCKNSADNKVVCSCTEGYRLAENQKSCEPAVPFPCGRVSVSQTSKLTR chain 2: VVGGEDAKPGQFPWQVVLNGKVDAFCGGSIVNEKWIVTAAHCVETGVKITVVAGEHNIEETEHTEQNRSVIRIIPHHNYNAAINKYNHDIALLELDEPLVLNSYVTPICIADKEYTNIFLKFGSGYVSGWGRVFHKGYSALVLQYLRVPLVDRATCLESTKFTIYNNMFCAGFHEGGRDSCQGDSGGPHVTEVEGTSFLTGIISWGEECAMKGKYGIYTKVSEYVNWIKNKTKLT", "UNIT_OF_MEASUREMENT": "%", "VALUE": 408}
{"PROTEIN": "FIXa-Y155F/R318Y/R338E/N346D/R403E/E410N (protein) chain 1: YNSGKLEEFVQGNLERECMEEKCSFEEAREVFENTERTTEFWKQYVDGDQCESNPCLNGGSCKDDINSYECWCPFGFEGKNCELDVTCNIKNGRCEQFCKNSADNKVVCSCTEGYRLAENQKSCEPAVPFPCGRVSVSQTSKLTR chain 2: VVGGEDAKPGQFPWQVVLNGKVDAFCGGSIVNEKWIVTAAHCVETGVKITVVAGEHNIEETEHTEQKRNVIRIIPHHNYNAAINKYNHDIALLELDEPLVLNSYVTPICIADKEYTNIFLKFGSGYVSGWGRVFHKGYSALVLQYLRVPLVDRATCLESTKFTIYDNMFCAGFHEGGRDSCQGDSGGPHVTEVEGTSFLTGIISWGEECAMKGKYGIYTKVSEYVNWIKNKTKLT", "UNIT_OF_MEASUREMENT": "%", "VALUE": 139}
{"PROTEIN": "FIXa-Y155F/I251S/R318Y/R338E/R403E/E410N (protein) chain 1: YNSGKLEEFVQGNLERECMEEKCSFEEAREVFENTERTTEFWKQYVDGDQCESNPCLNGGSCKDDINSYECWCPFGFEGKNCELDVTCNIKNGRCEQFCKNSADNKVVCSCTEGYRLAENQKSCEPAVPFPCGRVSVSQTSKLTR chain 2: VVGGEDAKPGQFPWQVVLNGKVDAFCGGSIVNEKWIVTAAHCVETGVKITVVAGEHNIEETEHTEQKRNVSRIIPHHNYNAAINKYNHDIALLELDEPLVLNSYVTPICIADKEYTNIFLKFGSGYVSGWGRVFHKGYSALVLQYLRVPLVDRATCLESTKFTIYNNMFCAGFHEGGRDSCQGDSGGPHVTEVEGTSFLTGIISWGEECAMKGKYGIYTKVSEYVNWIKNKTKLT", "UNIT_OF_MEASUREMENT": "%", "VALUE": 374}

Would you mind telling me what % of WT kcat/KM value was observed for FIXa R318Y/R338E/R403E/E410N/T412A (protein) chain 1: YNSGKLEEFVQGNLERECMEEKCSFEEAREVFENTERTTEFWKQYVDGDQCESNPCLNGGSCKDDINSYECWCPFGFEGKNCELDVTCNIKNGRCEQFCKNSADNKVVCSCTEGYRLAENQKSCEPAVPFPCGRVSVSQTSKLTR chain 2: VVGGEDAKPGQFPWQVVLNGKVDAFCGGSIVNEKWIVTAAHCVETGVKITVVAGEHNIEETEHTEQKRNVIRIIPHHNYNAAINKYNHDIALLELDEPLVLNSYVTPICIADKEYTNIFLKFGSGYVSGWGRVFHKGYSALVLQYLRVPLVDRATCLESTKFTIYNNMFCAGFHEGGRDSCQGDSGGPHVTEVEGTSFLTGIISWGEECAMKGKYGIYTKVSEYVNWIKNKAKLT ?
538

For FIXa-Y155F/I251S/R338E/T343R/R403E (protein) chain 1: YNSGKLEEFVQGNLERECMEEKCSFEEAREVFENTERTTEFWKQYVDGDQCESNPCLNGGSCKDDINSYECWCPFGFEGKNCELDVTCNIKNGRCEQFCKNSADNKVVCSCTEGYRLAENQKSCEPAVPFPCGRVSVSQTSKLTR chain 2: VVGGEDAKPGQFPWQVVLNGKVDAFCGGSIVNEKWIVTAAHCVETGVKITVVAGEHNIEETEHTEQKRNVSRIIPHHNYNAAINKYNHDIALLELDEPLVLNSYVTPICIADKEYTNIFLKFGSGYVSGWGRVFHKGRSALVLQYLRVPLVDRATCLESTKFRIYNNMFCAGFHEGGRDSCQGDSGGPHVTEVEGTSFLTGIISWGEECAMKGKYGIYTKVSEYVNWIKEKTKLT then?
651

For FIXa-R318Y/R403E/E410N (mature FIX numbering) (protein) chain 1: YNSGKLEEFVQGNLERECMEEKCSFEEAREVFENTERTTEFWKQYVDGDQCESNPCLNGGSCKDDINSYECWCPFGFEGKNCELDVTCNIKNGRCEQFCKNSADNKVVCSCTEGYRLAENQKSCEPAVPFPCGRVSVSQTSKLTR chain 2: VVGGEDAKPGQFPWQVVLNGKVDAFCGGSIVNEKWIVTAAHCVETGVKITVVAGEHNIEETEHTEQKRNVIRIIPHHNYNAAINKYNHDIALLELDEPLVLNSYVTPICIADKEYTNIFLKFGSGYVSGWGRVFHKGYSALVLQYLRVPLVDRATCLRSTKFTIYNNMFCAGFHEGGRDSCQGDSGGPHVTEVEGTSFLTGIISWGEECAMKGKYGIYTKVSEYVNWIKNKTKLT then?
59

For FIXa-Y155F/R318Y/R338E/R403E/E410N (mature FIX numbering) (protein) chain 1: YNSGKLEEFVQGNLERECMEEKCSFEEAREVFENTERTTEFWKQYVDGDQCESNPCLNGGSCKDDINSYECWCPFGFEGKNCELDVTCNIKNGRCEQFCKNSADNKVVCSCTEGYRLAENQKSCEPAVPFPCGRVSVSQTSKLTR chain 2: VVGGEDAKPGQFPWQVVLNGKVDAFCGGSIVNEKWIVTAAHCVETGVKITVVAGEHNIEETEHTEQKRNVIRIIPHHNYNAAINKYNHDIALLELDEPLVLNSYVTPICIADKEYTNIFLKFGSGYVSGWGRVFHKGYSALVLQYLRVPLVDRATCLESTKFTIYNNMFCAGFHEGGRDSCQGDSGGPHVTEVEGTSFLTGIISWGEECAMKGKYGIYTKVSEYVNWIKNKTKLT then?
418
